Target: Fatty-acid amide hydrolase 1 (Rattus norvegicus) (UniProt P97612)
Sequence (P97612 whole entry): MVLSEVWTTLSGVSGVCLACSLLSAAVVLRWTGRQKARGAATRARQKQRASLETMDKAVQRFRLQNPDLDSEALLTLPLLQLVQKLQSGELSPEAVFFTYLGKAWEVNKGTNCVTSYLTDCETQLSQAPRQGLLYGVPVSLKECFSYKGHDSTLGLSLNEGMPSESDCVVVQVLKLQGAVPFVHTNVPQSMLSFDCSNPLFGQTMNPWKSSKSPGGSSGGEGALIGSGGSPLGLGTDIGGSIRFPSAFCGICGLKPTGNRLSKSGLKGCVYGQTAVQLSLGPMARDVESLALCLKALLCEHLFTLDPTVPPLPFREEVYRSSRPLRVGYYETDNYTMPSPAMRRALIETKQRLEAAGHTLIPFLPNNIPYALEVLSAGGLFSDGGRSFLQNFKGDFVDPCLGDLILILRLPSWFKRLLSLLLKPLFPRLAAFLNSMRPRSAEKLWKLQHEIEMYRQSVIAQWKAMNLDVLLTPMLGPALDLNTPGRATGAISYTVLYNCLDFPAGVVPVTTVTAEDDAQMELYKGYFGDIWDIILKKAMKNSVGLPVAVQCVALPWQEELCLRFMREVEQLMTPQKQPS
Assay: Inhibition of rat histidine tagged FAAH expressed in Escherichia coli at 10 uM by coumarin ester substrate fluorescence assay
Calls of active or inactive are those of the source. The rule behind the calls is not given here.
Reported Metric: inhibition

Molecule	Experimental System	Endpoint Result
CCCCCCCCCCC[C@@H](C[C@@H]1OC(=O)[C@H]1CCCCCC)OC(=O)[C@H](NC=O)[C@@H](C)CC	Fatty-acid amide hydrolase 1 (Rattus norvegicus) (UniProt P97612)	0%
CCCCCCCCNC(=O)OCC(OC)O[Si](c1ccccc1)(c1ccccc1)C(C)(C)C (racemic)	Fatty-acid amide hydrolase 1 (Rattus norvegicus) (UniProt P97612)	inactive
CCCCCCCCCCC[C@@H](C[C@@H]1OC(=O)[C@H]1CCCCCC)OC(=O)[C@H](CC)NC=O	Fatty-acid amide hydrolase 1 (Rattus norvegicus) (UniProt P97612)	12%
CCCCCCCCCCCCCCCCS(=O)(=O)F	Fatty-acid amide hydrolase 1 (Rattus norvegicus) (UniProt P97612)	100%
COCC(CNC(=O)ON=C1CCCCC1)OC(=O)CCCc1ccc(-c2ccccc2)cc1 (racemic)	Fatty-acid amide hydrolase 1 (Rattus norvegicus) (UniProt P97612)	inactive
COCC(COC(=O)CCCc1ccc(-c2ccccc2)cc1)OC(=O)CCCc1ccc(-c2ccccc2)cc1 (racemic)	Fatty-acid amide hydrolase 1 (Rattus norvegicus) (UniProt P97612)	inactive
O=C(N[C@H]1COC1=O)OCc1ccccc1	Fatty-acid amide hydrolase 1 (Rattus norvegicus) (UniProt P97612)	10%
CCCCC/C=C\C/C=C\C/C=C\C/C=C\CCCC(=O)OC(COC)COC(=O)NCCCCCCCC (racemic)	Fatty-acid amide hydrolase 1 (Rattus norvegicus) (UniProt P97612)	inactive
CCCCCCCCCCC[C@@H](C[C@@H]1OC(=O)[C@H]1CCCCCC)OC(=O)[C@H](NC=O)[C@H](C)CC	Fatty-acid amide hydrolase 1 (Rattus norvegicus) (UniProt P97612)	28%
